Attribution: PubChem BioAssay AID248

For each record, write down the corresponding T/C.
- System: L1210 leukemia ip in BDF1 mice, survival T/C
- assay-procedure: NCI In Vivo Anticancer Drug Screen. Data for tumor model L1210 Leukemia (intraperitoneal) in B6D2F1 (BDF1) mice
- assay-context: endpoint: mean survival time; dose: 50.0 mg/kg/injection; schedule: Q04DX002 (ip); vehicle: Klucel (hydroxypropylcellulose) (HPC); higher = longer survival
- Method: The antitumor activity of compounds was measured in mice bearing transplantable tumors. Survival or tumor size were measured and the results are expressed as the measurement made in the treated group (T) divided by the measurement made in the vehicle treated control group (C). The tumor model used in this assay is L1210 Leukemia (intraperitoneal) in B6D2F1 (BDF1) mice
Inconclusive results and toxic doses are left out.

[
  {
    "compound": "O=c1cc(C(F)(F)F)[nH]c2ccccc12",
    "endpoint-result": "98 % of control"
  },
  {
    "compound": "N#Cc1nc2c3ccccc3c(N=NC(N)=S)c-2[nH]c1C#N",
    "endpoint-result": "87 % of control"
  },
  {
    "compound": "O=C(/C=C/c1ccncc1)Nc1ccccc1",
    "endpoint-result": "98 % of control"
  },
  {
    "compound": "CC1(C)C2=CCCC2CC/C1=N/NC(N)=O (configuration not stated)",
    "endpoint-result": "93 % of control"
  }
]

Give T/C for each listed item.
1. CNC(=O)Nc1nc2ccccc2s1
2. COc1cc2oc(C)c(C)c2cc1/C=C\[N+](=O)[O-]
3. COC(=O)N1C(c2ccccc2)CS1(=O)=O (configuration not stated)

Reply |
["91 % of control", "96 % of control", "113 % of control"]

---

- System: L1210 leukemia ip in BDF1 mice, survival T/C
- assay-procedure: NCI In Vivo Anticancer Drug Screen. Data for tumor model L1210 Leukemia (intraperitoneal) in B6D2F1 (BDF1) mice
- assay-context: endpoint: mean survival time; dose: 400.0 mg/kg/injection; schedule: Q04DX003 (ip); vehicle: Klucel (hydroxypropylcellulose) (HPC); higher = longer survival
Toxic doses and inconclusive results are not listed.
Kindly state T/C for each of the entries shown.

[
  {
    "molecule": "CCOC(=O)c1cnc(SC)nc1NC",
    "measured-target": "L1210 leukemia ip in BDF1 mice, survival T/C",
    "T/C": "111 % of control"
  },
  {
    "molecule": "c1ccc(-c2csc(NNc3nc(-c4ccccc4)cs3)n2)cc1",
    "measured-target": "L1210 leukemia ip in BDF1 mice, survival T/C",
    "T/C": "112 % of control"
  },
  {
    "molecule": "O=S1(=O)C(C(O)(c2ccccc2)c2ccccc2)CCC1C(O)(c1ccccc1)c1ccccc1 (centres undefined)",
    "measured-target": "L1210 leukemia ip in BDF1 mice, survival T/C",
    "T/C": "105 % of control"
  },
  {
    "molecule": "CCc1cccc2ccccc12",
    "measured-target": "L1210 leukemia ip in BDF1 mice, survival T/C",
    "T/C": "96 % of control"
  },
  {
    "molecule": "CCOC(=O)C1C(O)=C(P(=O)(C2=C(O)C(C(=O)OCC)C(c3ccc(OC(C)=O)cc3)C(C(=O)O)C2=O)N(CCCl)CCCl)C(=O)C(C(=O)O)C1c1ccc(OC(C)=O)cc1 (centres undefined)",
    "measured-target": "L1210 leukemia ip in BDF1 mice, survival T/C",
    "T/C": "108 % of control"
  }
]

Could I get T/C for every one of these entries?
1. COc1cc(OC)c([N+](=O)[O-])cc1Cl
2. COc1ccc2c(c1)CCC1C2CCC2(C)C1CCC21CCNP(=O)(N(CCCl)CCCl)O1 (centres undefined)
3. Oc1ccc2ccccc2c1N=Nc1nccs1
4. CCCCCCCCCCCCCCCCCCOc1ccc(Sc2ccc([N+](=O)[O-])cc2)cc1

Reply |
1. 94 % of control
2. 92 % of control
3. 94 % of control
4. 88 % of control

Take each entry in turn and give its T/C.
1. O=S1(=O)CC(c2ccc(F)cc2)Nc2ccccc21 (centres undefined)
2. Cn1cc([N+](=O)[O-])ccc1=O

Reply |
1. 97 % of control
2. 121 % of control

Give T/C for each of the items listed below.
1. CCNC(=O)C(=O)c1ccccc1NC(C)=O
2. COc1ccc(OC(=O)OCc2ccccc2)cc1
3. NC(=O)NC(NC(=O)NC(NC(N)=O)c1ccco1)c1ccco1 (centres undefined)
4. OC(c1ccccc1)c1nnc(C(O)c2ccccc2)nn1 (centres undefined)
5. CC(C)(C)C(=O)CC(=O)C(C)(C)C.CC(C)(C)C(=O)CC(=O)C(C)(C)C.CC(C)(C)C(=O)CC(=O)C(C)(C)C.[Al]

Reply |
["96 % of control", "109 % of control", "88 % of control", "100 % of control", "95 % of control"]

Each molecule below has a reported value. Please supply its T/C.
1. ClCCCN(CCCCl)c1ccc(C=Nc2cccc(Cl)c2)c(Cl)c1
2. CSc1ccc(NC(=O)Nc2cc(C)cc(C)n2)cc1

Reply |
["95 % of control", "98 % of control"]

I'm hoping you can list T/C for every molecule here, please.
1. OC1CCC2CCCC2C1 (centres undefined)
2. O=C(O)c1c(Cl)ccc([N+](=O)[O-])c1Cl
3. O=C(Nc1ccccc1F)c1ccc(Cl)c(Cl)c1

Reply |
["99 % of control", "92 % of control", "93 % of control"]

Need T/C for each of these molecules.
1. O=[N+]([O-])c1ccc(S(=O)(=O)O/N=C2\c3ccccc3-c3ccc([N+](=O)[O-])cc32)cc1
2. CCc1ccc2c(c1)Nc1ccccc1S2
3. COC(=O)c1cccc(C)c1NC(=O)NCCCl
4. CCC(NC(=O)c1ccccc1)C(=O)O (centres undefined)
5. Cc1cc(C)n(CO)n1
6. Cc1ccc([N+](=O)[O-])cc1N=C=O

Reply |
1: 95 % of control; 2: 86 % of control; 3: 94 % of control; 4: 103 % of control; 5: 112 % of control; 6: 97 % of control

Dear colleague, could you send me T/C for each of the items below? Thanks.
1. COc1cc2c(cc1OC)C1CNC(=O)C1C(c1ccccc1)C2 (centres undefined)
2. C=CCN(CC=C)S(=O)(=O)c1cccc(C(=O)O)c1

Reply |
1: 98 % of control; 2: 105 % of control

Can you give me T/C for all of these, one by one?
1. CN(C)c1ccccc1C(=O)NNC(=S)Nc1ccccc1
2. C[Si](C)(C)c1c(F)c(F)cc(F)c1F

Reply |
1. 94 % of control
2. 97 % of control

---

- Test system: L1210 leukemia ip in BDF1 mice, survival T/C
- assay-procedure: NCI In Vivo Anticancer Drug Screen. Data for tumor model L1210 Leukemia (intraperitoneal) in B6D2F1 (BDF1) mice
- assay-context: endpoint: mean survival time; dose: 400.0 mg/kg/injection; schedule: Q04DX003 (ip); vehicle: Klucel (hydroxypropylcellulose) (HPC); higher = longer survival
Toxic doses and inconclusive results are not listed.
Please respond with reported T/C for every item in the list.

Here is how some compounds turned out for T/C.
[
  {
    "compound": "COc1ccc(CNc2ncccn2)cc1",
    "measured-target": "L1210 leukemia ip in BDF1 mice, survival T/C",
    "measurement-label": "T/C",
    "endpoint-result": "107 % of control"
  },
  {
    "compound": "O=C(/C=C/c1cccc2ccccc12)c1ccc(Cl)cc1",
    "measured-target": "L1210 leukemia ip in BDF1 mice, survival T/C",
    "measurement-label": "T/C",
    "endpoint-result": "94 % of control"
  },
  {
    "compound": "Clc1ccc(S/C=C/c2ccccc2)cc1",
    "measured-target": "L1210 leukemia ip in BDF1 mice, survival T/C",
    "measurement-label": "T/C",
    "endpoint-result": "104 % of control"
  },
  {
    "compound": "Clc1ccc2c(c1)Nc1ccccc1S2",
    "measured-target": "L1210 leukemia ip in BDF1 mice, survival T/C",
    "measurement-label": "T/C",
    "endpoint-result": "100 % of control"
  },
  {
    "compound": "O=[N+]([O-])c1cccc(S(=O)(=O)NNc2ccc(Br)cc2)c1",
    "measured-target": "L1210 leukemia ip in BDF1 mice, survival T/C",
    "measurement-label": "T/C",
    "endpoint-result": "89 % of control"
  }
]

Go through the list and state T/C for each entry.
1. COc1ccc(NC(=O)Nc2ccccc2Cl)cc1
2. CNC(=O)c1ccccc1C(O)(c1ccccc1)c1ccccc1
3. Cc1c(Cl)cccc1N1C(=O)CC(Sc2ccccc2N)C1=O (stereo not drawn)
4. Clc1ccc(N2CCN(c3ccc(Cl)cc3)CC2)cc1
5. COc1cc(NC(=O)CC(C)=O)cc2c(C)cc(=O)n(C)c12
6. O=C(Nc1ccc(Cl)c(Cl)c1)OC1C=CS(=O)(=O)C1 (stereo not drawn)
7. CC1(C)CC(=O)c2c(cc3oc(=O)ccc3c2O)O1

Reply |
1. 90 % of control
2. 90 % of control
3. 89 % of control
4. 87 % of control
5. 94 % of control
6. 96 % of control
7. 98 % of control

Ask | Suppose we examine the compound `CCCCOC(=O)NC/C(Br)=C/Br` ; what T/C value has been reported?
Reply | 105 % of control
